Target: human ether-à-go-go-related gene (hERG) potassium channel (human);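 further: peak tail current of the secondary pulse compared with the same well before compound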
Sequence (Q12809 whole entry, looked up): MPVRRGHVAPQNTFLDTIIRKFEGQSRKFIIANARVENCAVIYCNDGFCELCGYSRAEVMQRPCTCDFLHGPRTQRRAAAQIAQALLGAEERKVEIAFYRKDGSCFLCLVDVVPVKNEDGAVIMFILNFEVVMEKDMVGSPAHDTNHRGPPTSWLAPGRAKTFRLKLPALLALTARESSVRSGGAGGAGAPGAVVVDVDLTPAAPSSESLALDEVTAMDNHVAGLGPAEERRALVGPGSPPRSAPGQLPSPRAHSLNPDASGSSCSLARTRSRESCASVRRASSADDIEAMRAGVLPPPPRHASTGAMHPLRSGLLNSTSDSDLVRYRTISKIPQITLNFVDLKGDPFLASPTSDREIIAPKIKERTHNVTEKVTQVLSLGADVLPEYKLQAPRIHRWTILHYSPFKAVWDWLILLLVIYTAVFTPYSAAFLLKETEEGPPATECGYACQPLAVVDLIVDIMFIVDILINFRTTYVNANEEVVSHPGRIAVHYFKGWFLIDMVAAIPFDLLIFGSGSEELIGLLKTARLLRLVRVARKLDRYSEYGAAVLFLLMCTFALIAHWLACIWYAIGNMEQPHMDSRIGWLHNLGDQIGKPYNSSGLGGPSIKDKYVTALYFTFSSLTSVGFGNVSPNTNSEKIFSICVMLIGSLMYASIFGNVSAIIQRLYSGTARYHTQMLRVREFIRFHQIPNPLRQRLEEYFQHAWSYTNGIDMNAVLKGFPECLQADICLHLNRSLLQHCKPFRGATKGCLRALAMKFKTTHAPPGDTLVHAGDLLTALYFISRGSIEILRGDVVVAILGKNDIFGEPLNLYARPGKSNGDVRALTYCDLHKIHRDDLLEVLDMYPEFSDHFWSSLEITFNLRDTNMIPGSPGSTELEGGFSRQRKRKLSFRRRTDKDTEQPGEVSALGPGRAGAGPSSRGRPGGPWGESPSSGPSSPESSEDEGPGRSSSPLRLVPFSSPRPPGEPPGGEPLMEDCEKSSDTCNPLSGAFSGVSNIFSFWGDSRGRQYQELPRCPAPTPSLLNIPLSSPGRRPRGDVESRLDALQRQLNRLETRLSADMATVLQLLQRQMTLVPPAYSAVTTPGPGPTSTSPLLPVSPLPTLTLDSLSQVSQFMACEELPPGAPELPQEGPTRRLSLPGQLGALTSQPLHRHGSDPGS
Assay: primary screen, population patch clamp on CHO cells stably expressing hERG; higher = less effect of the substance
Screen size: about 310,000 compounds; about 14,000 (4.5%) showed an effect of 50% or more. Effects have a minus sign here. The full list was thinned out, with strong results kept by preference.
Measurement label: hERG current change (%, negative = inhibition) at 10uM (%)

{"Compound": "Cc1ccc(CN2CCN(Cc3cccc(-n4cccn4)c3)CC2CCO)cc1 (stereo not drawn)", "Tgt": "human ether-à-go-go-related gene (hERG) potassium channel (human)", "Display unit": "%", "Reported measurement": -74.5}
{"Compound": "Cc1cc(-n2cccn2)ccc1CN1CCN(CC(C)C)C(CCO)C1 (stereo not drawn)", "Tgt": "human ether-à-go-go-related gene (hERG) potassium channel (human)", "Display unit": "%", "Reported measurement": -45.5}
{"Compound": "CCCNS(=O)(=O)c1ccc(CCC(=O)N2CCOCC2)cc1", "Tgt": "human ether-à-go-go-related gene (hERG) potassium channel (human)", "Display unit": "%", "Reported measurement": 3.77}
{"Compound": "Cc1ccc(Cn2c(C(CO)Nc3nc(-c4ccc(Cl)c([N+](=O)[O-])c4)cs3)nc3ccccc32)cc1 (stereo not drawn)", "Tgt": "human ether-à-go-go-related gene (hERG) potassium channel (human)", "Display unit": "%", "Reported measurement": 7.56}
{"Compound": "Cl.Clc1ccc(-c2ccc(CNCc3ccccn3)o2)cc1", "Tgt": "human ether-à-go-go-related gene (hERG) potassium channel (human)", "Display unit": "%", "Reported measurement": -52.4}
{"Compound": "C=CCN(c1ccc(C(=O)NCCc2ccccc2)cc1)S(C)(=O)=O", "Tgt": "human ether-à-go-go-related gene (hERG) potassium channel (human)", "Display unit": "%", "Reported measurement": -6.23}
{"Compound": "Cc1ccc(CN2CCN(Cc3ccc(-n4cccn4)cc3C)CC2CCO)cc1 (stereo not drawn)", "Tgt": "human ether-à-go-go-related gene (hERG) potassium channel (human)", "Display unit": "%", "Reported measurement": -78.6}
{"Compound": "C=C(C)Cn1c(C2CC(=O)N(c3ccccc3F)C2)nc2ccccc21 (stereo not drawn)", "Tgt": "human ether-à-go-go-related gene (hERG) potassium channel (human)", "Display unit": "%", "Reported measurement": -27}
{"Compound": "CC(C)CN1CCN(Cc2cc(F)ccc2-n2cccn2)CC1CCO (stereo not drawn)", "Tgt": "human ether-à-go-go-related gene (hERG) potassium channel (human)", "Display unit": "%", "Reported measurement": -6.87}
{"Compound": "CN1CCN(Cc2ccc(-c3ccc(Cl)cc3)o2)CC1", "Tgt": "human ether-à-go-go-related gene (hERG) potassium channel (human)", "Display unit": "%", "Reported measurement": -31.7}
{"Compound": "COc1ccccc1N1CC(C(=O)NCCN2C(=O)S/C(=C\\c3cccnc3)C2=O)CC1=O (stereo not drawn)", "Tgt": "human ether-à-go-go-related gene (hERG) potassium channel (human)", "Display unit": "%", "Reported measurement": 1.78}
{"Compound": "COc1ccc(-n2ccnc2CN2CCN(C3CCCC3)C(CCO)C2)cc1 (stereo not drawn)", "Tgt": "human ether-à-go-go-related gene (hERG) potassium channel (human)", "Display unit": "%", "Reported measurement": -29.1}
{"Compound": "Cc1ccc(N=C2C(=O)Nc3ccccc32)cc1C", "Tgt": "human ether-à-go-go-related gene (hERG) potassium channel (human)", "Display unit": "%", "Reported measurement": 7.9}
{"Compound": "Cl.Fc1ccc(-c2ccc(CNCc3ccccn3)o2)cc1Cl", "Tgt": "human ether-à-go-go-related gene (hERG) potassium channel (human)", "Display unit": "%", "Reported measurement": -34.9}
{"Compound": "CCN(CC)CCNCc1ccc(-c2ccc(Cl)cc2)o1.Cl", "Tgt": "human ether-à-go-go-related gene (hERG) potassium channel (human)", "Display unit": "%", "Reported measurement": -72.8}
{"Compound": "OCCc1ccc(-c2ccc(Cl)cc2)o1", "Tgt": "human ether-à-go-go-related gene (hERG) potassium channel (human)", "Display unit": "%", "Reported measurement": 7.65}
{"Compound": "COc1ccc(C(=O)CC(=O)C(=O)NCCc2cccc(C)c2)cc1", "Tgt": "human ether-à-go-go-related gene (hERG) potassium channel (human)", "Display unit": "%", "Reported measurement": 7.31}
{"Compound": "Cl.Clc1cccc(-c2ccc(CNCc3ccccn3)o2)c1", "Tgt": "human ether-à-go-go-related gene (hERG) potassium channel (human)", "Display unit": "%", "Reported measurement": -16.2}
{"Compound": "Cc1cccc(-n2ccnc2CN2CCN(C3CCCC3)C(CCO)C2)c1 (stereo not drawn)", "Tgt": "human ether-à-go-go-related gene (hERG) potassium channel (human)", "Display unit": "%", "Reported measurement": -59.1}
{"Compound": "Cc1cc(OCCCC(=O)NCCN2C(=O)S/C(=C\\c3cccnc3)C2=O)ccc1Cl", "Tgt": "human ether-à-go-go-related gene (hERG) potassium channel (human)", "Display unit": "%", "Reported measurement": -6.35}
{"Compound": "Cc1csc(-c2cnn(-c3ccccc3)c2NC(=O)c2cccc(C(F)(F)F)c2)n1", "Tgt": "human ether-à-go-go-related gene (hERG) potassium channel (human)", "Display unit": "%", "Reported measurement": 9.98}
